Source: ChEMBL document CHEMBL1122959

Target: 3-hydroxy-3-methylglutaryl-coenzyme A reductase (Rattus norvegicus) (UniProt P51639)
Sequence (whole entry): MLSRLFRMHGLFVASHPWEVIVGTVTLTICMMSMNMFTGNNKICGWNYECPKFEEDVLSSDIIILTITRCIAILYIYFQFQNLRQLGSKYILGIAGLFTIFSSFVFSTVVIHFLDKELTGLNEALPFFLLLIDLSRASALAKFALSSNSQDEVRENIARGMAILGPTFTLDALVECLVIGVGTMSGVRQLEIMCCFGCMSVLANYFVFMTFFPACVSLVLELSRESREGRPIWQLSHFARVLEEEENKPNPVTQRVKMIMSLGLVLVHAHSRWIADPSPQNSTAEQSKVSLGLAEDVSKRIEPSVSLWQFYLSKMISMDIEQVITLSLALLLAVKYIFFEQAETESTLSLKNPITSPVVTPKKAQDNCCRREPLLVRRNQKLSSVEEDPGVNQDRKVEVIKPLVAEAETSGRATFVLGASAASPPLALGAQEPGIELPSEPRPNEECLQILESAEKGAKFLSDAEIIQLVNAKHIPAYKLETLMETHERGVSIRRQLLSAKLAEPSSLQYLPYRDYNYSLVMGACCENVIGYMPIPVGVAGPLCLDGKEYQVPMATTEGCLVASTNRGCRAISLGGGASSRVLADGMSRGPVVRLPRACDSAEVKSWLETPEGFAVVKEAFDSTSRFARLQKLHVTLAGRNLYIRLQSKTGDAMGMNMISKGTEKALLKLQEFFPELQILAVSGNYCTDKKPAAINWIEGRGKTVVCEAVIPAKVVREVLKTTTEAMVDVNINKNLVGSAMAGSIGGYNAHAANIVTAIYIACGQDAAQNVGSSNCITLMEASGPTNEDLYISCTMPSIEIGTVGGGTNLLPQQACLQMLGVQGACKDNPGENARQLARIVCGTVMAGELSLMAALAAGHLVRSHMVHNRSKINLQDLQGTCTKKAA
Experiment: Inhibitory activity against partially purified rat liver HMG CoA reductase at 1 ug/ml concentration
observed property: inhibition (%)

Ask: Please look up its inhibition: "O=C1C[C@H](O)C[C@@H](CCc2ccc(Cl)cc2Cl)O1"
Result: 29

Ask: Bench note: what inhibition did O=C1C[C@H](O)C[C@@H](/C=C/c2ccc(Cl)cc2Cl)O1 (stereo in doubt; 6a(+)) show?
Result: 26

Ask: Would you kindly share the measured inhibition for "O=C1C[C@H](O)C[C@@H](COc2ccc(Cl)cc2Cl)O1" ?
Result: 21

Ask: Quick one: inhibition for O=C1C[C@H](O)C[C@@H](/C=C/c2ccc(Cl)cc2Cl)O1 (stereo in doubt; 6a(-)) ?
Result: 0

Ask: Look up inhibition for this compound: O=C1C[C@H](O)CC(CCC23CC4CC(CC(C4)C2)C3)O1 (stereo not given in full)
Result: 18

Ask: I am curious: what inhibition value has been reported for "C[C@]1(O)CC(=O)O[C@H](/C=C/c2ccc(Cl)cc2Cl)C1" ?
Result: 11

Ask: Given the compound "NC(=O)C[C@H](O)C[C@H](O)/C=C/c1ccc(Cl)cc1Cl" , what is its reported inhibition?
Result: 0

Ask: Endpoint output: inhibition of "C[C@]1(O)CC(=O)O[C@H](CCc2ccc(Cl)cc2Cl)C1" . Value?
Result: 14

I. O=C1C[C@H](O)C[C@@H](/C=C/c2ccc(Cl)cc2Cl)O1 (racemic)
II. O=C1C[C@H](O)CC(CC[C@@H]2CC[C@H]3CCCC[C@@H]3C2)O1 (stereo not given in full)
Ask: Which record shows the lower inhibition: the first, I , or the second, II ? State your choice using its label.
Result: II
